# Target: Sodium-dependent dopamine transporter (Homo sapiens)
# Sequence (Q01959 whole entry): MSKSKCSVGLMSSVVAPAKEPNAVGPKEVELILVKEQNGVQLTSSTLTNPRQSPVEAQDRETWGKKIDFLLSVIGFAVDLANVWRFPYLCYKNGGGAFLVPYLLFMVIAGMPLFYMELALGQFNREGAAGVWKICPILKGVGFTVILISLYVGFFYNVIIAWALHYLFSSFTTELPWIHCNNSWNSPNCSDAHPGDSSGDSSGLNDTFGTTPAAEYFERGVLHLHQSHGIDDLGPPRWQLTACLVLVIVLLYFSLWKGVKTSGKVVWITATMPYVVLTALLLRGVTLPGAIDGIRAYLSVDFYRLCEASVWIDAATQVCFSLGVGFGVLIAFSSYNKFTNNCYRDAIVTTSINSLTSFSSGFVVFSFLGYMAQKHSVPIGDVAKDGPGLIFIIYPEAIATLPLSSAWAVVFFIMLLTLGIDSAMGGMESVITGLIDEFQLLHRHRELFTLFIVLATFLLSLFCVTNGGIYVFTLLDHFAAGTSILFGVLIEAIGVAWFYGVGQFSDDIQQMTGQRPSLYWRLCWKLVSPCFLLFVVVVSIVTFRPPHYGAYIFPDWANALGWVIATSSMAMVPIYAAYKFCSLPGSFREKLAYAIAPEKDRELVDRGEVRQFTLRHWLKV
pKi: −log10 of the molar value.

Molecule	pKi
c1ccc(OCc2cc(OCCNC3CCC3)no2)cc1	< 5.15

* * *

# Target: Sigma non-opioid intracellular receptor 1 (Homo sapiens, UniProt Q99720)
# Sequence (Q99720 whole entry): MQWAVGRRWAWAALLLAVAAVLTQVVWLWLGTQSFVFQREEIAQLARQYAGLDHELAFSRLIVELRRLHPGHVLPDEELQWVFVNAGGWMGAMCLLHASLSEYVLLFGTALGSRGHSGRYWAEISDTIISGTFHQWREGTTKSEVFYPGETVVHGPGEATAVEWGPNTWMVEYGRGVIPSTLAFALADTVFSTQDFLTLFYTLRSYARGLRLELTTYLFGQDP
# Procedure Summary: Binding affinity to sigma-1 receptor (unknown origin)
// reported Ki for each item listed
Endpoint Label: Ki (nM)

Molecule	Endpoint Label	Measured Value
C=C1CCN2Cc3ccc(OC)cc3[C@H]3CCCC[C@]32C1	Ki	8
CCN(CC)CCOCCOC(=O)C1(c2ccccc2)CCCC1	Ki	129

* * *

# Target: Sigma non-opioid intracellular receptor 1 (Homo sapiens)
pKi: −log10 of the molar value.

Compound	pKi
CCCN1CCC(c2cccc(S(C)(=O)=O)c2)CC1 [PRIDOPIDINE]	7.09

* * *

# Target: Muscarinic acetylcholine receptor M4 (Homo sapiens, UniProt P08173)
# Sequence (P08173 whole entry): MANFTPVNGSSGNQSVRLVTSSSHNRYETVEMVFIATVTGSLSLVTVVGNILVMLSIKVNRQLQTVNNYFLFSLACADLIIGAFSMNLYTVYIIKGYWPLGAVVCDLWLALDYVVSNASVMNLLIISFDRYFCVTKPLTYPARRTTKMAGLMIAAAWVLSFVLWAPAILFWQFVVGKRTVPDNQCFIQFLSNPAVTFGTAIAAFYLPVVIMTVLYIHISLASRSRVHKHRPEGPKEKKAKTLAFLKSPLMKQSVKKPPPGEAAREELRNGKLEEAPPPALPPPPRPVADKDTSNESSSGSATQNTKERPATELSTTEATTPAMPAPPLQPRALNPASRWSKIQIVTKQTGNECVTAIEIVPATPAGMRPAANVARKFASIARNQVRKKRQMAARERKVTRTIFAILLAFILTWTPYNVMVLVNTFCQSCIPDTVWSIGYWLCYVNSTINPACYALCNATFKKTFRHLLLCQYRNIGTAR

Molecule	IC50 / µM
CN(C)CC1CCOC1(c1ccccc1)c1ccccc1 (stereo unspecified)	3.3

* * *

# Target: Sigma intracellular receptor 2 (Rattus norvegicus)
# Sequence (Q5U3Y7 whole entry): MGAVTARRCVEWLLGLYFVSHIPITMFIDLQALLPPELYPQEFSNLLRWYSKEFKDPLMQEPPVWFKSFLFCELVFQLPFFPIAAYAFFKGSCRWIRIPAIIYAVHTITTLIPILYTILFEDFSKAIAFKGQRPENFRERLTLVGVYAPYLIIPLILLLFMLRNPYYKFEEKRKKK
# Procedure Summary: Displacement of [3H]DTG from sigma2 receptor in Wistar Hannover rat liver membranes incubated for 120 mins by solid scintillation counting method
# Type: cell membranes, Membrane
pKi: −log10 of the molar value.
Endpoint Label: pKi

Molecule	Endpoint Label	Measured Value
COc1ccc2c(CCCCN3C4CCCC3CCC4)cccc2c1	pKi	6.65

* * *

# Target: Sigma non-opioid intracellular receptor 1 (Cavia porcellus)
# Sequence (Q60492 whole entry): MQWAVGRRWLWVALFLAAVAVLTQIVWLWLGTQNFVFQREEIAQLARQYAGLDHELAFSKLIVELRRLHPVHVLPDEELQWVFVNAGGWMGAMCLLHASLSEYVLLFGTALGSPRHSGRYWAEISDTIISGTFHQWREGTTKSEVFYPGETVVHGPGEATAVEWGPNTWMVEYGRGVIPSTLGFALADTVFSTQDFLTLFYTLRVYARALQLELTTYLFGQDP
# Procedure Summary: Displacement of [3H]-(+)-pentazocine from sigma1 receptor in guinea pig brain cortex membranes incubated for 120 mins by solid scintillation counting method
# Type: cell membranes, Membrane
pKi: −log10 of the molar value.
Endpoint Label: pKi

Compound	Measured Value
CCOC1(c2ncc(-c3cccnc3)s2)CCN(Cc2ccccc2)CC1	8.89
CCOC1(c2ncc(-c3ccncc3)s2)CCN(Cc2ccccc2)CC1	8.72
c1ccc(CO[C@H](c2ccccc2)[C@H]2CCN(Cc3ccccc3)Cc3ccccc32)cc1	8.05
Fc1ccc(CN2CCC(Cc3ccccc3)c3ccccc3C2)cc1 (stereo not given)	8.15
c1ccc(CC2CCN(CC3CCCCC3)Cc3ccccc32)cc1 (stereo not given)	8.62

* * *

# Target: Sigma non-opioid intracellular receptor 1 (Cavia porcellus)
# Procedure Summary: Displacement of [3H]-(+)-pentazocine from sigma 1 receptor in guinea pig brain cortex membranes incubated for 120 mins by solid scintillation counting method
# Type: cell membranes, Membrane

Molecule	Ki (µM)
O=C(COc1ccc(Cl)c(Cl)c1)NCCN1CCOCC1	0.042

* * *

# Target: Sigma intracellular receptor 2 (Homo sapiens)
# Sequence (Q5BJF2 whole entry): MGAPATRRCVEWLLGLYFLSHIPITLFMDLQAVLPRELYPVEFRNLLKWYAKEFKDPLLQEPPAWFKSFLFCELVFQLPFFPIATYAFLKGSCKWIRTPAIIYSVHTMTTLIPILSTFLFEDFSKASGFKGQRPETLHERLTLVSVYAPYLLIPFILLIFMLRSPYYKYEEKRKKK
# Procedure Summary: Binding affinity to sigma-2 receptor (unknown origin)

Molecule	Target	Quantity Unit	Ki
CCN(CC)CCOCCOC(=O)C1(c2ccccc2)CCCC1	Sigma intracellular receptor 2 (Homo sapiens)	nM	1950
C=C1CCN2Cc3ccc(OC)cc3[C@H]3CCCC[C@]32C1	Sigma intracellular receptor 2 (Homo sapiens)	nM	152

* * *

# Target: Sigma non-opioid intracellular receptor 1 (Cavia porcellus)
# Procedure Summary: Displacement of [3H]-(+)-pentazocine from sigma 1 receptor in Dunkin-Hartley guinea pig brain membranes incubated for 180 mins by liquid scintillation counting method
# Assay type: cell membranes, Membrane
pKi: −log10 of the molar value.

Molecule	pKi
Clc1ccc(-c2noc(CCCCN3CCOCC3)n2)c(Cl)c1	9.55

* * *

# Target: Muscarinic acetylcholine receptor M1 (Homo sapiens, UniProt P11229)
# Sequence (P11229 whole entry): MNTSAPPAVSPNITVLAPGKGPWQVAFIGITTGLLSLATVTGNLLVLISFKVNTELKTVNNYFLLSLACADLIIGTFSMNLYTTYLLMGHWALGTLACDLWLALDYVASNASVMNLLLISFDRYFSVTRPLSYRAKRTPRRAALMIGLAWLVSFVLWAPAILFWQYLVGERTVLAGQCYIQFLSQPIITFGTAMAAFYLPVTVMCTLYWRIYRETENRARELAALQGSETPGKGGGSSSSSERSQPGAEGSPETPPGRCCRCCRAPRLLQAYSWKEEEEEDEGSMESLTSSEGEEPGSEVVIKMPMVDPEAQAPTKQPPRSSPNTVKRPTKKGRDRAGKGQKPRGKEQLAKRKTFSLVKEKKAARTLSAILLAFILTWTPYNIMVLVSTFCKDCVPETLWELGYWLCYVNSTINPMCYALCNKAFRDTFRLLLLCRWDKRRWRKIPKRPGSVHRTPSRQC
pIC50: −log10 of the molar value.

Molecule	pIC50
CN(C)CC1CCOC1(c1ccccc1)c1ccccc1 (stereo unspecified) [BLARCAMESINE]	5.48

* * *

# Target: Sigma intracellular receptor 2 (Rattus norvegicus)
# Procedure Summary: Displacement of [3H]DTG from sigma2 receptor in rat liver membranes incubated for 120 mins by solid scintillation counting method
# Assay type: cell membranes, Membrane
We label by threshold. Values of Ki strictly beneath 2000 nM are satisfied. Values of 2000 nM and up are not satisfied.

Compound	Target	Cat
c1ccc(CO[C@H](c2ccccc2)[C@H]2CCN(Cc3ccccc3)Cc3ccccc32)cc1	Sigma intracellular receptor 2 (Rattus norvegicus)	satisfied
O=C(COc1ccc(Cl)c(Cl)c1)NCCN1CCOCC1	Sigma intracellular receptor 2 (Rattus norvegicus)	satisfied
CCOC1(c2ncc(-c3cccnc3)s2)CCN(Cc2ccccc2)CC1	Sigma intracellular receptor 2 (Rattus norvegicus)	not satisfied
CCOC1(c2ncc(-c3ccncc3)s2)CCN(Cc2ccccc2)CC1	Sigma intracellular receptor 2 (Rattus norvegicus)	not satisfied
Fc1ccc(CN2CCC(Cc3ccccc3)c3ccccc3C2)cc1 (stereo unspecified)	Sigma intracellular receptor 2 (Rattus norvegicus)	satisfied
c1ccc(CC2CCN(CC3CCCCC3)Cc3ccccc32)cc1 (stereo unspecified)	Sigma intracellular receptor 2 (Rattus norvegicus)	satisfied

* * *

# Target: Muscarinic acetylcholine receptor M3 (Homo sapiens)
# Sequence (P20309 whole entry): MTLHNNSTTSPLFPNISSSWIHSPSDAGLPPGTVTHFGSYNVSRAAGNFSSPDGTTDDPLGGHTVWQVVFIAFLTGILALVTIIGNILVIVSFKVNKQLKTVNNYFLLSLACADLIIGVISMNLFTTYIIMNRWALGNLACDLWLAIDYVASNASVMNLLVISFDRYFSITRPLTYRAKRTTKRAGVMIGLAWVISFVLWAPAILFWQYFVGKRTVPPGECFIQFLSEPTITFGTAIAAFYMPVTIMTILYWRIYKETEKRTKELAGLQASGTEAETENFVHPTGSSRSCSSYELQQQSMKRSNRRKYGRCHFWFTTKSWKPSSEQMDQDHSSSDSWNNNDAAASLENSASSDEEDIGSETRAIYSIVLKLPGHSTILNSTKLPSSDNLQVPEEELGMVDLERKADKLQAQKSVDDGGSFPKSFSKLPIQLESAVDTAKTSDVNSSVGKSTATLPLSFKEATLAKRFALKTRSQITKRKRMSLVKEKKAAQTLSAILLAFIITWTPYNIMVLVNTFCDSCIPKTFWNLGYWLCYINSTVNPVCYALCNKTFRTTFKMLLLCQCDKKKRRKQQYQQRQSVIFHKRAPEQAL
Endpoint Label: IC50 (µM)

Compound	Endpoint Label	Measured Value
CN(C)CC1CCOC1(c1ccccc1)c1ccccc1 (stereo unspecified) [BLARCAMESINE]	IC50	3.3
